Taken from a collection of fitness landscapes (doi:10.1126/science.1257360).

B1: PhoQ; a variant is named by its letters at X, in order, P23837 (parent)
chain: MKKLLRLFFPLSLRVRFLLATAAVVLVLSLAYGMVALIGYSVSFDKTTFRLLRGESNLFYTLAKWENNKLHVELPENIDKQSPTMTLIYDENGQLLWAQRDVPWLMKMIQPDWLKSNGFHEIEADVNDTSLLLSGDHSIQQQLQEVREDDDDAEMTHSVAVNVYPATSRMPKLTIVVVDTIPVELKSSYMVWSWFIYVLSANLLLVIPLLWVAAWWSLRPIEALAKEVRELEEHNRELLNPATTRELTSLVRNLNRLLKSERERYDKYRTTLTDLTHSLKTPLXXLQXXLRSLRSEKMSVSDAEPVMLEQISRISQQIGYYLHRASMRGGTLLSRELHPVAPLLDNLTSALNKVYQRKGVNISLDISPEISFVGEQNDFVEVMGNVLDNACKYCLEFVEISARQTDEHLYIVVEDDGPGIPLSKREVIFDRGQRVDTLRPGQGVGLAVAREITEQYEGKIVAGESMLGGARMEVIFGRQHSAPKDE

- Variants of: B1
- Assay summary: enrichment ratio after two sorts for PhoP signalling (ratio (wild type AVST 3.29)); higher = more functional
- Protocol conditions: with PhoP (E. coli)
The full ranking holds about 140,000 sequences; the median of “enrichment ratio after two sorts for PhoP signalling” is about 0, and the highest 2% start at about 11. This is one part of a sample in which the highest values are shown more often than they occur.
Reported property: enrichment ratio
Output spec: single numeric token, no unit.

Would you kindly share the measured enrichment ratio for "GISK" ? 4.87

Field entry: "SQMV" 22.1

Field entry: "TDLS" 18

Field entry: "GITG" 2.48

Field entry: "TDTI" 14.6
